This collection of values is drawn from ChEMBL document CHEMBL4480371.

- Target Desc: Xanthine dehydrogenase/oxidase (Bos taurus, UniProt P80457)
- Sequence (P80457 whole entry): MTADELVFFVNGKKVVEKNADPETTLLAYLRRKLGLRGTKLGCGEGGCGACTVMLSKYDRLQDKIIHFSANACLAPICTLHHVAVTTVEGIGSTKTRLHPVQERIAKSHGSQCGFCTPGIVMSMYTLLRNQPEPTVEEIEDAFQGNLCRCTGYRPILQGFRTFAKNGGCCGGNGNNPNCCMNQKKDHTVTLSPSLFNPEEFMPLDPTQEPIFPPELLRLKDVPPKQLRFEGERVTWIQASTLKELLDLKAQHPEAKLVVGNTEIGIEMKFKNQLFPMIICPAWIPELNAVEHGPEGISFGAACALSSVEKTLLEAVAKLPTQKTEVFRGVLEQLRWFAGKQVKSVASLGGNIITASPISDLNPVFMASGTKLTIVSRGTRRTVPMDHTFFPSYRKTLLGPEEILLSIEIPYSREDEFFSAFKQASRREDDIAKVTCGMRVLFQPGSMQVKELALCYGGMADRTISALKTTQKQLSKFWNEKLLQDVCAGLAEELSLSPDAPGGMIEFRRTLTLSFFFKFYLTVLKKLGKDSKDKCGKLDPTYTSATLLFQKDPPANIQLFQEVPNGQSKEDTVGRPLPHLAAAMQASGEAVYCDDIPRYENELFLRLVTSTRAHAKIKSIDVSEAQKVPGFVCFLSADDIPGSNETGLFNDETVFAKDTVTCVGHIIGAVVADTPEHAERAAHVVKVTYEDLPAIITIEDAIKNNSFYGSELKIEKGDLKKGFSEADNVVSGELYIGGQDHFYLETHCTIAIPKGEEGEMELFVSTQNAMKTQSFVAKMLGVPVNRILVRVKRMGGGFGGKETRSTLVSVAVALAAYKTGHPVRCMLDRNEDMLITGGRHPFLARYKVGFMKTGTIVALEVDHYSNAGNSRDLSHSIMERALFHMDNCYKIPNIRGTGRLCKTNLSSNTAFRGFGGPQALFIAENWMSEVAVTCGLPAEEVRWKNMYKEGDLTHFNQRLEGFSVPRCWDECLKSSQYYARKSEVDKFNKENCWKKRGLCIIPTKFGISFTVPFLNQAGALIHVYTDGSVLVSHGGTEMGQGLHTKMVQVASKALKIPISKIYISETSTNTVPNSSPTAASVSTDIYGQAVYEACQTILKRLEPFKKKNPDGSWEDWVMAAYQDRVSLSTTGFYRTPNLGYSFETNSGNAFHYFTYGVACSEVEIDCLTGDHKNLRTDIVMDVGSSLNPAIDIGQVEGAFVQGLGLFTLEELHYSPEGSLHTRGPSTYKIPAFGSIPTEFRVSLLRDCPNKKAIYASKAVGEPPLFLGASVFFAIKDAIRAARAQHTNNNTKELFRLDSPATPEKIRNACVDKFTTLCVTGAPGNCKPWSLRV
pIC50: −log10 of the molar value.
Assay Endpoint: pIC50

Some solved cases for reference:
{"columns": ["Smi", "pIC50"],
 "data": [
  ["O=c1cc(-c2ccccc2F)oc2c1ccc1ccccc12", 5.31],
  ["Cc1ccc(-c2cc(=O)c3c(ccc4ccccc43)o2)cc1", "< 4.70"],
  ["O=c1cc(-c2cccc(F)c2)oc2ccc3ccccc3c12", "< 4.70"],
  ["COc1ccc(-c2cc(=O)c3c(ccc4ccccc43)o2)cc1", "< 4.70"],
  ["O=c1cc(-c2cccc(Br)c2)oc2c1ccc1ccccc12", "< 4.70"]
]}

// query Write down the reported pIC50 of O=c1cc(-c2ccccc2I)oc2ccc3ccccc3c12 , test system: Xanthine dehydrogenase/oxidase (Bos taurus, UniProt P80457).
// result < 4.70
